The values you see were collected from patent US20250281457A1.

Experiment: Effect of food on plasma pharmacokinetics after single oral dose of SF2a/b (Example 2)
Format: in vivo, human
Details: both sexes, human, plasma, oral, 800 mg, Treatment D: single 800 mg (SF2b), fasted; read-out: AUC∞, Geo. Mean
result.type: AUC(0-inf) (µg·h/mL)
Please give a number only; it is taken to be in µg·h/mL.

So what's the measured AUC(0-inf) for this one? COc1cc(NC(C(=O)c2c[nH]c3ccc(OC(F)(F)F)cc23)c2ccc(Cl)cc2OC)cc(S(C)(=O)=O)c1 (stereo not shown)
142

----------
Test: Effect of food on plasma pharmacokinetics after single oral dose of SF2a/b (Example 2)
Assay type: in vivo, human
Conditions: both sexes, human, plasma, oral, 50 mg, 50 mg SF2a, standardized breakfast; linear mixed effects model (Table 5C); read-out: Cmax, Geometric Mean Treatment I
result.type: Cmax (µg/mL)
Please give a number only; it is taken to be in µg/mL.

So what's the measured Cmax for this one? COc1cc(NC(C(=O)c2c[nH]c3ccc(OC(F)(F)F)cc23)c2ccc(Cl)cc2OC)cc(S(C)(=O)=O)c1 (stereo not shown) [Compound (a)]
0.257

----------
Assay: Plasma pharmacokinetics with loading dose and weekly or twice weekly maintenance dosing, fed (Example 5)
Format: in vivo, human
Details: human, plasma, oral, 150 mg, Panel IV (150 mg BID Days 1-2, then 150 mg Q3D/Q4D; SF2a/b, fed), Day 6; read-out: Mean Cmax (SD)
result.type: Cmax (ng/mL)
Please give a number only; it is taken to be in ng/mL.

So what's the measured Cmax for this one? COc1cc(NC(C(=O)c2c[nH]c3ccc(OC(F)(F)F)cc23)c2ccc(Cl)cc2OC)cc(S(C)(=O)=O)c1 (stereo not shown) [Compound (a)]
1460

----------
Test: Effect of food on plasma pharmacokinetics after single oral dose of SF2a/b (Example 2)
Type: in vivo, human
Details: both sexes, human, plasma, oral, 200 mg, Treatment F: single 200 mg (SF2b), fasted; read-out: Cmax, Mean
result.type: Cmax (ng/mL)
Please give a number only; it is taken to be in ng/mL.

So what's the measured Cmax for this one? COc1cc(NC(C(=O)c2c[nH]c3ccc(OC(F)(F)F)cc23)c2ccc(Cl)cc2OC)cc(S(C)(=O)=O)c1 (stereo not shown) [Compound (a)]
602

----------
Test: Effect of food on plasma pharmacokinetics after single oral dose of SF2a/b (Example 2)
Assay type: in vivo, human
Details: both sexes, human, plasma, oral, 800 mg, 800 mg SF2b, fed, low-fat, high-calorie breakfast; read-out: Cmax, Geometric LS Means Treatment M
Experimental: The effect of food on the pharmacokinetics (PK) of Compound (a) was assessed in healthy participants after a single oral dose of SF2a/b, described in Example 1, administered at different dose levels in a randomized single dose, 2-period crossover study. […]
result.type: Cmax (ng/mL)
Please give a number only; it is taken to be in ng/mL.

So what's the measured Cmax for this one? COc1cc(NC(C(=O)c2c[nH]c3ccc(OC(F)(F)F)cc23)c2ccc(Cl)cc2OC)cc(S(C)(=O)=O)c1 (stereo not shown)
2060

----------
Assay: Plasma pharmacokinetics with loading dose and weekly or twice weekly maintenance dosing, fed (Example 5)
Assay type: in vivo, human
Details: human, plasma, oral, Panel I (450 mg BID Days 1-2, then 900 mg Q7D; SF2a/b, fed), Day 1; read-out: Mean Cmax (SD)
result.type: Cmax (ng/mL)
Please give a number only; it is taken to be in ng/mL.

So what's the measured Cmax for this one? COc1cc(NC(C(=O)c2c[nH]c3ccc(OC(F)(F)F)cc23)c2ccc(Cl)cc2OC)cc(S(C)(=O)=O)c1 (stereo not shown)
2020

----------
Assay: Plasma pharmacokinetics with loading dose and weekly or twice weekly maintenance dosing, fed (Example 5)
Assay type: in vivo, human
Conditions: human, plasma, oral, Panel II (450 mg BID Days 1-2, then 450 mg Q3D/Q4D; SF2a/b, fed), Day 1; read-out: Median tmax (min-max)
result.type: Tmax (h)
Please give a number only; it is taken to be in h.

So what's the measured Tmax for this one? COc1cc(NC(C(=O)c2c[nH]c3ccc(OC(F)(F)F)cc23)c2ccc(Cl)cc2OC)cc(S(C)(=O)=O)c1 (stereo not shown) [Compound (a)]
5.5

----------
Assay: Effect of food on plasma pharmacokinetics after single oral dose of SF2a/b (Example 2)
Format: in vivo, human
Settings: both sexes, human, plasma, oral, 800 mg, Treatment D: single 800 mg (SF2b), fasted; read-out: AUClast, Median
result.type: AUC(0-t)
Just so you know, I need the unit written after the number.

So what's the measured AUC(0-t) for this one? COc1cc(NC(C(=O)c2c[nH]c3ccc(OC(F)(F)F)cc23)c2ccc(Cl)cc2OC)cc(S(C)(=O)=O)c1 (stereo not shown) [Compound (a)]
138 µg·h/mL

----------
Assay: Plasma pharmacokinetics with loading dose and weekly or twice weekly maintenance dosing, fed (Example 5)
Format: in vivo, human
Details: human, plasma, oral, 450 mg, Panel II (450 mg BID Days 1-2, then 450 mg Q3D/Q4D; SF2a/b, fed), Day 24; read-out: Mean Cmax (SD)
result.type: Cmax (ng/mL)
Please give a number only; it is taken to be in ng/mL.

So what's the measured Cmax for this one? COc1cc(NC(C(=O)c2c[nH]c3ccc(OC(F)(F)F)cc23)c2ccc(Cl)cc2OC)cc(S(C)(=O)=O)c1 (stereo not shown)
3920

----------
Assay: Effect of food on plasma pharmacokinetics after single oral dose of SF2a/b (Example 2)
Assay type: in vivo, human
Conditions: both sexes, human, plasma, oral, 200 mg, Treatment F: single 200 mg (SF2b), fasted; read-out: t1/2, term, Geo. Mean (converted)
result.type: half-life
Just so you know, I need the unit written after the number.

So what's the measured half-life for this one? COc1cc(NC(C(=O)c2c[nH]c3ccc(OC(F)(F)F)cc23)c2ccc(Cl)cc2OC)cc(S(C)(=O)=O)c1 (stereo not shown)
188 h

----------
Assay: Effect of food on plasma pharmacokinetics after single oral dose of SF2a/b (Example 2)
Type: in vivo, human
Settings: both sexes, human, plasma, oral, 50 mg, Treatment H: single 50 mg (SF2a), fasted; read-out: Cmax, Mean
Procedure: The effect of food on the pharmacokinetics (PK) of Compound (a) was assessed in healthy participants after a single oral dose of SF2a/b, described in Example 1, administered at different dose levels in a randomized single dose, 2-period crossover study. […]
result.type: Cmax (ng/mL)
Please give a number only; it is taken to be in ng/mL.

So what's the measured Cmax for this one? COc1cc(NC(C(=O)c2c[nH]c3ccc(OC(F)(F)F)cc23)c2ccc(Cl)cc2OC)cc(S(C)(=O)=O)c1 (stereo not shown)
214

----------
Assay: Plasma pharmacokinetics with loading dose and weekly or twice weekly maintenance dosing, fed (Example 5)
Type: in vivo, human
Details: human, plasma, oral, 150 mg, Panel IV (150 mg BID Days 1-2, then 150 mg Q3D/Q4D; SF2a/b, fed), Day 3; read-out: Mean AUC72 h (SD)
result.type: AUC(0-t) (ng·h/mL)
Please give a number only; it is taken to be in ng·h/mL.

So what's the measured AUC(0-t) for this one? COc1cc(NC(C(=O)c2c[nH]c3ccc(OC(F)(F)F)cc23)c2ccc(Cl)cc2OC)cc(S(C)(=O)=O)c1 (stereo not shown)
89200

----------
Experiment: Plasma pharmacokinetics with loading dose and weekly or twice weekly maintenance dosing, fed (Example 5)
Assay type: in vivo, human
Settings: human, plasma, oral, 150 mg, Panel IV (150 mg BID Days 1-2, then 150 mg Q3D/Q4D; SF2a/b, fed), Day 27; read-out: Mean AUC72 h (SD)
result.type: AUC(0-t) (ng·h/mL)
Please give a number only; it is taken to be in ng·h/mL.

So what's the measured AUC(0-t) for this one? COc1cc(NC(C(=O)c2c[nH]c3ccc(OC(F)(F)F)cc23)c2ccc(Cl)cc2OC)cc(S(C)(=O)=O)c1 (stereo not shown)
65800

----------
Assay: Effect of food on plasma pharmacokinetics after single oral dose of SF2a/b (Example 2)
Type: in vivo, human
Conditions: both sexes, human, plasma, oral, 800 mg, 800 mg SF2b, fed, standardized breakfast (Tables 5F, 5H); read-out: Cmax, Geometric LS Means Treatment E
result.type: Cmax (ng/mL)
Please give a number only; it is taken to be in ng/mL.

So what's the measured Cmax for this one? COc1cc(NC(C(=O)c2c[nH]c3ccc(OC(F)(F)F)cc23)c2ccc(Cl)cc2OC)cc(S(C)(=O)=O)c1 (stereo not shown)
3400

----------
Assay: Plasma pharmacokinetics with loading dose and weekly or twice weekly maintenance dosing, fed (Example 5)
Format: in vivo, human
Details: human, plasma, oral, 300 mg, Panel III (150 mg BID Days 1-2, then 300 mg Q7D; SF2a/b, fed), Day 3; read-out: Mean AUC24 h (SD)
result.type: AUC(0-t) (ng·h/mL)
Please give a number only; it is taken to be in ng·h/mL.

So what's the measured AUC(0-t) for this one? COc1cc(NC(C(=O)c2c[nH]c3ccc(OC(F)(F)F)cc23)c2ccc(Cl)cc2OC)cc(S(C)(=O)=O)c1 (stereo not shown)
52400
